Where these numbers come from: patent US20070066551

- targetOrSystem: IL-23 (full length) (Homo sapiens, UniProt Q9NPF7;P29460 Q9NPF7:20-189,P29460:23-328)
- Sequence (Q9NPF7 20-189, chain 1 of 2): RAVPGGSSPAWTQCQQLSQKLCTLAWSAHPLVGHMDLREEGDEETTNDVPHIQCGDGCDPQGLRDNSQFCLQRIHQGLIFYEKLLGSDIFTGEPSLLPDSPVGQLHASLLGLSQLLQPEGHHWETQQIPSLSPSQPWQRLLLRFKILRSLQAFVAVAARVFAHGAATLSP
- Sequence (P29460 23-328, chain 2 of 2): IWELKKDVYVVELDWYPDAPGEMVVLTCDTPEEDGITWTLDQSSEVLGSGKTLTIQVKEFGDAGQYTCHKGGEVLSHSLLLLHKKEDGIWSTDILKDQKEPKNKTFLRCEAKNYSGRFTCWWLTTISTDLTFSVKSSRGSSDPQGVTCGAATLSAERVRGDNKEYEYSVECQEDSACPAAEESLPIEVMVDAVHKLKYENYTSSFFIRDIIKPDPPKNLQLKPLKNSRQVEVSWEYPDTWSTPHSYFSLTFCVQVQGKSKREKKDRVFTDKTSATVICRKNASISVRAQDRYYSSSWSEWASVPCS
- method: filter; PBS without Ca/Mg, 0.1 mg/mL BSA, RT 30 min; 13 nM in DPBS with Ca/Mg (Table 5)
- setupConditions: label: 5'-32P
endpoint: pKd
The quantity pKd is defined as the negative base-10 logarithm of the molar concentration.

Ask: Give recorded pKd. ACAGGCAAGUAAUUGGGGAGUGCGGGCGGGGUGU (mixed, 2'-deoxy purines, 2'-OMe pyrimidines (dRmY)) [ARC979]
Result: 7.05
